Data provenance is patent US20120264685A1.

# assayedTarget: human glucagon receptor (human, UniProt P47871 26-477)
# Sequence (P47871 26-477): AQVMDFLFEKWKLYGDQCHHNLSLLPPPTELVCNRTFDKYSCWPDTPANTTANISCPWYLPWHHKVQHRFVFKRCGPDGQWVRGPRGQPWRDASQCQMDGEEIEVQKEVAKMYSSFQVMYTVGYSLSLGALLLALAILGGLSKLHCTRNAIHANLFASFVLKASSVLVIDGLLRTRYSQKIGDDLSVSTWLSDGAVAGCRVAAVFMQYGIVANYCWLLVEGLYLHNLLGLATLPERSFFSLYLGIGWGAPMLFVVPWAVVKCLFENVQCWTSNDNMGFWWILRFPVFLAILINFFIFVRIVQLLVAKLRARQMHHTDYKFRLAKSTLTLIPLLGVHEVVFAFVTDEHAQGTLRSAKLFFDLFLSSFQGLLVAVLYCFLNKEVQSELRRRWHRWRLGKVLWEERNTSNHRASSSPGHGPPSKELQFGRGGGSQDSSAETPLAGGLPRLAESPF
# assayMethodText: cell-based or functional assay
Where no end group is shown, it is not given here. [ ]: non-standard residue; d: D form. αMePhe(2,6-F2) = C[C@](N)(Cc1c(F)cccc1F)C(=O)O; αMePhe(2-F) = C[C@](N)(Cc1ccccc1F)C(=O)O; αMeBip(OMe) = alpha-methylated Bip(OMe); hhPhe = N[C@@H](CCCc1ccccc1)C(=O)O; αMeD = C[C@](N)(CC(=O)O)C(=O)O; αMeAPPA = not defined here; αMeS = C[C@](N)(CO)C(=O)O; Aib = CC(C)(N)C(=O)O
Label met when cAMP production (pmol/ml/µg prt) with saturated glucagon peptide, at 10 nM < 6 pmol/ml/µg prt; otherwise not met.

VH[Aib]EGTFT[αMeS]D[αMeBip(OMe)][αMeAPPA] (not fully specified (C-terminus); printed as VH-Aib-EGTFT-(αMe-Ser)-D-(αMe-Bip(OMe))-(αMe-APPA); reading uncertain) [Seq. ID. No. 163] :: not met
VHSQGT[αMePhe(2-F)]TSD[αMeBip(OMe)][hhPhe] (not fully specified (C-terminus); printed as VHSQGT-(αMe-2FPhe)-TSD-(αMe-Bip(OMe))-(APPA)) [Seq. ID. No. 17] :: met
VVH[Aib]EGT[αMePhe(2,6-F2)]TSD[αMeBip(OMe)][hhPhe]-NH2 [Seq. ID. No. 227] :: not met

Moving on to the next binder.
**Q:** Threshold test, cAMP production (pmol/ml/µg prt) with saturated glucagon peptide, at 10 nM < 6 pmol/ml/µg prt: VH[Aib]EGTFTS[αMeD][αMeBip(OMe)][hhPhe]-NH2 [Seq. ID. No. 63]
**A:** not met
